# Test system: KM12 colon
# ASSAY: NCI-60 one-dose screen, 48 h (100 = growth as untreated, 0 = no growth, -100 = all killed)
# REPORTED_CONDITIONS: 10 µM unless noted
The panel holds about 83,000 compounds, 20% with a hit somewhere; the sample as a whole holds those more often.
Use met when the recorded growth is no lower than 50%; use not met when it is lower.

molecule="CC(=O)N(C)C1CCc2c(sc(NC(=O)c3ccc(C(C)(C)C)cc3)c2C(N)=O)C1 (centres undefined)" subject_of_test="KM12 colon" label_value=met
molecule=NC(N)=Nc1ccc(Oc2cccc(Nc3ccc(Br)c(C(F)(F)F)c3)c2)cn1 subject_of_test="KM12 colon" label_value="not met"
molecule=CNC(=O)c1cc(N2CCc3cc(NC(=O)Nc4ccc(Cl)c(C(F)(F)F)c4)ccc32)ccn1 subject_of_test="KM12 colon" label_value="not met"
molecule=CCCCCc1ccc(S(=O)(=O)Nc2cccc(-c3csc(NC(=O)CN4CCN(C)CC4)n3)c2)cc1 subject_of_test="KM12 colon" label_value=met
molecule=N#Cc1cccc(CN2CCC3=C(C2)C(=O)N(Cc2ccc(Cl)cc2)C2=NCCN23)c1 subject_of_test="KM12 colon" label_value="not met"
molecule=Cc1cc(-c2ccc(Cl)cc2)n(Cc2nnc(SCC(=O)Nc3ccc(S(N)(=O)=O)cc3)n2C2CCCCC2)n1 subject_of_test="KM12 colon" label_value=met
molecule=CCCCCc1ccc(S(=O)(=O)Nc2cc(-c3csc(NC(=O)CN4CCN(C)CC4)n3)ccc2OC)cc1 subject_of_test="KM12 colon" label_value="not met"
molecule=CCCSc1nc(Nc2ccc(/C(C)=N\NC(N)=S)cc2)c(C#N)c(-c2ccccc2)n1 subject_of_test="KM12 colon" label_value=met
molecule=N=c1c2cc(-c3ccccc3)oc2ncn1/N=C/c1ccc(Cl)cc1 subject_of_test="KM12 colon" label_value="not met"
molecule=CCOc1ccc(C(=O)Nc2ncc(Cc3ccc(F)cc3)s2)cc1 subject_of_test="KM12 colon" label_value="not met"

Ask | // inclusive: growth at least 50%? input: COc1ccc2c(c1)Oc1nc(N)c(C#N)c(N)c1C2Sc1ccc(C)cc1 (centres undefined)
Reply | met

Ask | Dear colleague, could you confirm whether C=CCOc1cccc(/C=C2\SC(=S)N(C3CC(=O)N(c4ccc(Br)cc4)C3=O)C2=O)c1 (centres undefined) has growth at or above 50%?
Reply | met

Ask | # check: growth of CC[C@H](CO)Nc1ccc2ncc(C#Cc3cncc(C(=O)Nc4ccc(CN5CCN(C)CC5)c(C(F)(F)F)c4)c3)n2n1 is greater than or equal to 50%
Reply | not met

---

growth values by entry
# Test system: IGROV1 ovarian
# ASSAY: NCI-60 one-dose screen, 48 h (100 = growth as untreated, 0 = no growth, -100 = all killed)
# REPORTED_CONDITIONS: 10 µM unless noted
About 83,000 compounds went through this panel and 20% of them were active in at least one assay; those are over-represented in the sample as a whole.
Quick note: give the figure in %, leave out the unit.

In the examples that follow, each entry is paired with its recorded growth.
molecule=Nc1ncc(-c2ccc3ncnc(Nc4cccc(Cl)c4F)c3c2)cn1 measured_quantity=growth numeric_value=11.4
molecule="c1ccc(C(c2nc3ncncc3[nH]2)N2CSc3nc4ccccc4n3C2)cc1 (centres undefined)" measured_quantity=growth numeric_value=99.9
molecule=C/C(=N\O)[C@H]1C[C@]23CC[C@]4(C)[C@H](CC[C@@H]5[C@@]6(C)CC/C(=N/O)C(C)(C)[C@@H]6CC[C@]54C)[C@H]2[C@H](C)C1(C)OC3 measured_quantity=growth numeric_value=86.2

// next entry
The molecule C#Cc1nc(C(=O)NCCC(=O)Nc2ccc(NC(=O)c3ccc(/C=C/C(=O)c4nccn4C)cc3)cc2)cs1 showed growth equal to -25.5

---

# Tested on: KM12 colon
# ASSAY: NCI-60 one-dose screen, 48 h
# REPORTED_CONDITIONS: 10 µM unless noted
Compounds without any hit were thinned out: in the full panel of roughly 83,000, 20% have a hit. The source made the active and inactive calls. Rule for the calls: active = growth percent below 10; inactive = the rest.
Your reply should match one of these outcome classes. y (active), n (inactive)

compound=Cn1cc(-c2cc(N)n3nc(-c4cn(C)c5ccccc45)cc3n2)c2ccccc21 subject_of_test="KM12 colon" label_value=n
compound=NS(=O)(=O)c1ccc(Nc2nc(N/N=C/CCc3ccccc3)nc(Nc3ccccc3)n2)cc1 subject_of_test="KM12 colon" label_value=n
compound=Brc1ccccc1/C=N/Nc1nc(N/N=C/c2ccccc2Br)nc(N2CCOCC2)n1 subject_of_test="KM12 colon" label_value=n
compound=N#Cc1cccc(NC(=O)c2cc(-c3ccc(F)cc3F)ccc2O)c1 subject_of_test="KM12 colon" label_value=y
compound=COc1ccc(S(=O)(=O)NCCCNc2nccc(-c3[nH]c(-c4ccccc4)nc3-c3ccc(Cl)c(O)c3)n2)cc1 subject_of_test="KM12 colon" label_value=n
compound="CCOC(=O)C1=NNC(c2ccc(Cl)cc2)C1C(=O)N1C(=S)NC(=O)C1CC(C)C (centres undefined)" subject_of_test="KM12 colon" label_value=n
compound=Cc1cc(C)c2sc(=O)n(Cc3nnc(SCCC(=O)O)o3)c2n1 subject_of_test="KM12 colon" label_value=n
compound=CCCCCc1ccc(S(=O)(=O)Nc2cccc(-c3csc(NC(=O)CCCCCN4CCN(C)CC4)n3)c2)cc1 subject_of_test="KM12 colon" label_value=n

Next up:
Ask | Could you check what this test reported for O=S(=O)(Nc1cccc2ccccc12)c1ccc(-c2cnc(C3CC3)o2)cc1 ?
Reply | n

---

# Tested on: A549/ATCC NSCLC
# ASSAY: NCI-60 one-dose screen, 48 h (100 = growth as untreated, 0 = no growth, -100 = all killed)
# REPORTED_CONDITIONS: 10 µM unless noted
The panel holds about 83,000 compounds, 20% with a hit somewhere; the sample as a whole holds those more often.
MEASURED_QUANTITY: growth (%)
Quick reminder: number only, in %, skip the unit.

Record excerpt, results attached:
compound="CCOC(=O)C(=O)CC(=O)N1C(=S)NC(=O)C1CC(C)C (stereo not drawn)" numeric_value=103
compound=COc1ccc(OC)c(-c2nc(SCC(=O)c3ccc(Br)cc3)nc(Nc3ccc(S(N)(=O)=O)cc3)c2C#N)c1 numeric_value=67.4

Please look at the following compound next.
For this compound ( COc1c(N2CC3CCCNC3C2)c(F)cc2c(=O)c(C(=O)N/N=C/c3ccc(Br)cc3)cn(C3CC3)c12 (stereo not drawn) ), measured growth is 83.1

---

# Test system: SNB-75 CNS
# ASSAY: NCI-60 one-dose screen, 48 h (100 = growth as untreated, 0 = no growth, -100 = all killed)
# REPORTED_CONDITIONS: 10 µM unless noted
This is part of a sample that, as a whole, favours compounds with a hit. Of some 83,000 tested, about 20% had one in any assay.
MEASURED_QUANTITY: growth (%)
The reply should contain only the number, in %.

# count of solved cases: 4
molecule=CCN(CC)CCn1c2ccc(O)cc2c2sc3cc(OC)ccc3c(=O)c21 numeric_value=40.7
molecule="Cc1cc(C)c(N2C(=O)CC(Nc3ccc(Cl)cc3Cl)C2=O)c(C)c1 (stereo not given)" numeric_value=93
molecule=N#Cc1cccc(CN2CCC3=C(C2)C(=O)N(Cc2ccc(Cl)cc2)C2=NCCCN23)c1 numeric_value=68
molecule=NS(=O)(=O)c1ccc(Nc2nc(SCc3ccccc3)nc3ccccc23)cc1 numeric_value=70.5

API: the following record is the query input.
Record COc1ccc(-n2c(SCc3nnc(NC(=O)c4ccc(Br)cc4)s3)nc3cc(OC)c(OC)cc3c2=O)cc1 , field growth: 93.4

---

# System: HS 578T breast
# ASSAY: NCI-60 one-dose screen, 48 h (100 = growth as untreated, 0 = no growth, -100 = all killed)
# REPORTED_CONDITIONS: 10 µM unless noted
The panel holds about 83,000 compounds, 20% with a hit somewhere; the sample as a whole holds those more often. Activity calls are given as the source filed them. The calls were made as follows: active = growth percent below 10; inactive = the rest.
MEASURED_QUANTITY: growth

Some solved entries appear below for comparison.
compound=NC(N)=Nc1ccc(Oc2cccc(Nc3ccc(Cl)c(C(F)(F)F)c3)c2)cn1 result="-2.57% (active)"
compound=CS(=O)(=O)Nc1cc(-c2ccc3ncc(C#N)c(Nc4cccc(Cl)c4F)c3c2)cnc1Cl result="-26.6% (active)"
compound=COc1ccc2c(c1)c(CC(=O)[Se]CC(=O)O)c(C)n2C(=O)c1ccc(Cl)cc1 result="85.8% (inactive)"
compound="COC(=O)/C=C/c1c(C2(C)NC(=O)c3ccccc3N2)c(=O)oc2ccc(Cl)cc12 (centres undefined)" result="90.9% (inactive)"
compound=NC(N)=Nc1ccc(Nc2cccc(Oc3ccc(Cl)c(C(F)(F)F)c3)c2)cn1 result="45.4% (inactive)"

growth recorded for this compound, O=C(NNc1nc2cc(F)ccc2n2c(CO)ccc12)c1cnccn1 , is 68.3% (inactive)

Recorded growth (compound NC(N)=Nc1ccc(Oc2cccc(NC(N)=Nc3ccc(Br)cc3)c2)cn1 ): 44.2% (inactive)

The reported value for COc1ccccc1N1CCN(C2=CC(=O)C(C)=C(C)C2=O)CC1 in terms of growth is 103% (inactive)

Value of measured growth for the entry O=[N+]([O-])c1cc(/C=N/Nc2nc(N/N=C/c3ccc(Cl)c([N+](=O)[O-])c3)nc(N3CCCCC3)n2)ccc1Cl : 53.8% (inactive)

Origin of measurements: PubChem BioAssay (NCI)
